These entries and their values trace back to patent US20030068675.

- target_or_system: ZFP SBS#726 (synthetic)
- Sequence (chain, as listed by the source): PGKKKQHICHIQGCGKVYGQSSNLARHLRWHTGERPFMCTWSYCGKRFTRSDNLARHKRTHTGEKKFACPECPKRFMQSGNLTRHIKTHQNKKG
- protocol_details: EMSA
- applied_conditions: tags: MBP fusion
pKd: −log10 of the molar value.

| binder | pKd |
| --- | --- |
| GAAGAGGATG (dsDNA) DNA 1: GAAGAGGATG DNA 2: CATCCTCTTC | 8.82 |
